- experimental-details: NCI Yeast Anticancer Drug Screen. Data for the cln2 rad14 strain (AID 165);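 further: 0% = growth equal to vehicle treated cultures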
- condition-info: S. cerevisiae cln2 rad14 strain, at 50.0 µM, stronger effect = higher value
Compounds without any hit were thinned out: in the full panel of roughly 79,000, 15% have a hit. Where a SMILES comes first, the peptide text is derived from it. [ ]: non-standard residue; d: D form. The star is where a group is joined. Cbz = O=C(OCc1ccccc1)*; Nva = CCC[CH](N)C(=O)O
Please respond with reported growth inhibition for every item in the list.
Answer in %, number only, no unit symbol.

-- ask Bench note: what growth inhibition did Cc1[nH]c2nccn2c(=O)c1CCCl show?
-- reply -13.2

-- ask What do we get for O=C(O)CC(C(=O)O)c1ccccc1[N+](=O)[O-] (stereo not given) ?
-- reply -32.5

-- ask # iterate: CN1CCCNCCN(CCc2ccccn2)CCCN(C)CC1
-- reply -7.75

-- ask # iterate: C/C(=N\NC(C)(C)C)c1sc(-c2nc(C)c(/C(C)=N/NC(C)(C)C)s2)nc1C
-- reply -20.6

-- ask Proceed to CCNC1=C(C(=O)OCC)C(=O)CO1
-- reply 9.95

-- ask Then this compound: CCCCCCCCCCCCC(Br)C(=O)OCC (stereo not given)
-- reply -5.2

-- ask Continue with Cc1nn(C(=O)CC(=O)Nc2ccccc2Cl)c(C)c1N=Nc1ccccc1Cl
-- reply 35.1

-- ask What about this compound? c1ccc(SCN(CSc2ccccc2)c2ccccc2)cc1
-- reply 66.8

-- ask Another compound to look at: Cn1c(=O)c2c(nc3sc4nc5ccccc5nc4n32)n(C)c1=O
-- reply -25.4

-- ask Similarly, Cc1cccc(Cl)c1O ?
-- reply -23.8

-- ask Follow-up entry: CCCC(NC(=O)OCc1ccccc1)C(=O)NC(Cc1ccccc1)C(N)=O (stereo not given) (Cbz-[Nva]-Phe-NH2; configuration not given here)
-- reply -34.2

-- ask Check Cc1cc(NC(=O)NCCCCCCNC(=O)Nc2cc(C)on2)no1 too.
-- reply -7.75

-- ask Follow-up item: O=[N+]([O-])c1ccc(P(=O)(O)c2ccc([N+](=O)[O-])cc2)cc1
-- reply -25.9

-- ask Ok, now O=C(NC(=O)C(Cl)Cl)OC1c2cc(Cl)ccc2-c2c(Cl)cc(Cl)cc21 (stereo not given)
-- reply 98.8

-- ask Request: CC(Nc1cccc(Cl)c1)S(=O)(=O)O (stereo not given)
-- reply 26.4

-- ask Same question, Cc1nc2c(=O)[nH]c(=O)[nH]c2[nH]c1=O this time
-- reply -50.5

-- ask Another compound to look at: COc1ccc2c(c1)CC[C@@H]1[C@@H]2CC[C@@]2(C)[C@H]1C[C@@](C)(O)[C@H]2O
-- reply -59.9

-- ask Also, Cc1cc(C)nc(NS(=O)(=O)c2ccc(Nc3c4ccccc4nc4c(C(=O)Nc5ccc(S(=O)(=O)Nc6cc(C)on6)cc5)cccc34)cc2)n1 please.
-- reply 31.7

-- ask Can you handle CCCCCCCCC1CO1 (stereo not given) next?
-- reply -19.5

-- ask Lookup C=CC(=O)NC1CCCCC1
-- reply -8.9

-- ask Next compound up: CC(=O)OCC1CCCCO1 (stereo not given)
-- reply -0.2

-- ask Next entry: COc1ccc(Sc2cccc(Cl)c2)c(C(=O)O)c1
-- reply 3.8

-- ask Subsequent entry: CN(C)CCNC1=CC(=O)c2nc3ccccc3c3ccnc1c23
-- reply 27.9

-- ask Again, but for CCCCNc1c(C(=O)N2CCCCC2)cnc2c1cnn2CC
-- reply -13.9

-- ask Also NCCN.O=C([O-])CN1CCOCC1.[OH-].[Pt+4] , if possible.
-- reply -17.9

* * *

- experimental-details: NCI Yeast Anticancer Drug Screen. Data for the sgs1 mgt1 strain (AID 161);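 further: 0% = growth of cultures given vehicle only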
- condition-info: S. cerevisiae sgs1 mgt1 strain, at 50.0 µM
The panel holds about 79,000 compounds, 15% with a hit somewhere; the sample as a whole holds those more often. Activity calls are given as the source filed them. Rule as the data show it: active = growth inhibition above about 70%; inactive = the rest.
Please state which outcome applies, choosing from t for active, f for inactive

-- ask Test call, this compound: c1ccc(-c2cc[n+]3c4c2ccc2c(-c5ccccc5)cc[n+](c24)CC3)cc1
-- reply t

-- ask Entry O=C1C(CO)=C[C@@H](O)[C@H]2O[C@@H]12 please
-- reply f

-- ask # iterate: N#CC(c1ccccc1)N(CCCCCCN(C(=O)c1ccccc1)C(C#N)c1ccccc1)C(=O)c1ccccc1 (configuration not stated)
-- reply f

-- ask What do you get for CC1OC(OC2C(OC(=O)[C@@H]3CC(C)(C)C[C@H]4C5=CC[C@@H]6[C@@]7(C)C[C@H](O)[C@H](OC8OC(CO)C(O)C(O)C8O)[C@@](C)(CO)[C@@H]7[C@H](O)C[C@@]6(C)[C@]5(C)CC[C@@]34C)OCC(O)C2O)C(O)C(O)C1O (some centres not stated) ?
-- reply f

-- ask Try the compound c1cc2c3c(c1)CCC3CCC2 (configuration not stated)
-- reply f

-- ask Another compound to check: CCc1ccccc1NC(=O)/C=N/O
-- reply f

-- ask Same for CCCCN(CC)CCNc1cc(C)nc(/N=C(\N)Nc2ccc(Cl)c(Cl)c2)n1
-- reply t

-- ask Also, CCOC(=O)C(CCCBr)(C(=O)OCC)N1C(=O)c2ccccc2C1=O please.
-- reply f

-- ask Next compound: COc1ccccc1NC(C)=O
-- reply f

-- ask Now consider O=C(NC(=O)C(Cl)Cl)OC1c2cc(Cl)ccc2-c2c(Cl)cc(Cl)cc21 (configuration not stated) .
-- reply t

-- ask Quick one: NC(=O)CC(N)C(=O)OCc1ccc([N+](=O)[O-])cc1 (configuration not stated)
-- reply f

-- ask Please do the same for CNc1ccc(C(=O)N(C(=O)NC2CCCCC2)C2CCCCC2)cc1 as well.
-- reply f

-- ask Consider next the compound CCN(CC)Cc1ccccc1CO in the same way.
-- reply f

-- ask Record: O=C1CCCCC1C(Nc1ccccc1)c1ccccc1 (configuration not stated)
-- reply f

-- ask // repeat for Cc1cccc(C)c1NC(=O)N1CCN(C)CC1 and report
-- reply f

-- ask Another compound: CC(C)C(C)(O)c1ccccc1 (configuration not stated)
-- reply f

-- ask Entry COC(=O)/C=C/c1cc2c(cc1-c1c(C(=O)O)cc(OC)c(OC)c1OC)OCO2 please
-- reply f

-- ask Next entry: Cc1ccccc1/C=N/NC(=O)c1cccc2ccccc12
-- reply f

-- ask Queued: OCc1sccc1-n1cccc1
-- reply f

-- ask Try the compound OCC(CN1CCCCC1)(CN1CCCCC1)CN1CCCCC1
-- reply f

-- ask Cool, now CCOC(=O)Cn1ccc[n+]1CC(=O)c1ccccc1
-- reply f

-- ask Proceed to CCCCCCCCCCCCCCCCc1c(C(=O)OC)[nH]c(=S)[nH]c1=O
-- reply f

-- ask Same question, C(/Cc1ccc2c(c1)OCO2)=N\NC1=NCCN1 this time
-- reply f

-- ask Param item: CCC(C)OC(=O)C1C(=O)CC(c2ccccc2)C1c1ccccc1 (configuration not stated)
-- reply f

-- ask Request: O=C1c2cc3c(cc2C(=O)c2[nH]c(=O)ccc21)CCCC3
-- reply f

-- ask // query: COCOc1c(OC)c(C2(O)C(=O)N(C)c3ccccc32)c(OCOC)c(OC)c1C1(O)C(=O)N(C)c2ccccc21 (configuration not stated)
-- reply f

-- ask Do the same for C/C=C/C=N/N(C(=O)c1cc([N+](=O)[O-])cc([N+](=O)[O-])c1)C1=NC(c2ccccc2)C(c2ccccc2)=NN1 (configuration not stated) please
-- reply f

-- ask Another compound to look at: CC(=O)c1c(O)ccc2c(C)cc(=O)oc12
-- reply f

-- ask Again, but for CC(=O)Nc1ncc(Br)s1
-- reply f

-- ask Would you kindly repeat that for CN1NC(c2ccc(Cl)cc2)=C(C#N)C(=O)CC1c1ccccc1 (configuration not stated) ?
-- reply f

-- ask Now the same for CCC1(CCCCCBr)OCCO1
-- reply f

-- ask Ok, now c1ccc([Si]2(c3ccccc3)[Si](c3ccccc3)(c3ccccc3)[Si](c3ccccc3)(c3ccccc3)[Si]2(c2ccccc2)c2ccccc2)cc1
-- reply f

-- ask Param item: CC1CC(=O)c2c(O)ccc(O)c21 (configuration not stated)
-- reply f

-- ask Cool, now COC(=O)c1ccc(C(=O)OC)nc1
-- reply f

-- ask Now the compound O=C1OC2C(O)C3CC1C2O3 (configuration not stated)
-- reply f

-- ask Likewise for O=C(Nc1ccccc1)Nc1ccc(-c2ccccc2)cc1 ?
-- reply f

-- ask Also Cn1c(=O)c2[nH]c(Br)nc2n(C)c1=O , if possible.
-- reply f

-- ask Query CC(C)/C(Cl)=N/OC(=O)Nc1ccc(Cl)c(Cl)c1 next
-- reply t

-- ask Same read-out for Cc1cc(C)c(C)c(C)c1C ?
-- reply f

-- ask Okay, and CCO/C([O-])=C(\C=N\S(=O)(=O)c1ccc(C)cc1)[n+]1ccccc1 ?
-- reply f

-- ask Repeat with CNC(=O)Nc1cc(C)ccc1Cl
-- reply f

-- ask How about Cc1cccc(/C=C(\C#N)C(=O)c2ccccc2)c1 ?
-- reply f

-- ask And then C=CCNC(=O)OCCCl , what is it?
-- reply f

-- ask # repeat for CC(=O)Nc1nc2c(s1)CCc1ccccc1-2
-- reply f

-- ask Cool, now COC(=O)C(C)(N)Cc1ccc(O)c(C)c1 (configuration not stated)
-- reply f

-- ask Thanks! And O=C(COc1ccccc1Cl)N1N=C(c2ccc(Cl)cc2)CC1(O)c1ccccc1 (configuration not stated) ?
-- reply f

-- ask Could you do the same for Cc1cc(C)c(NC(=O)C(C)(C)C)c(C)c1 , please?
-- reply f
